Target: TTR (Homo sapiens, UniProt P02766)
Construct: purchased SCIPAC (Sittingbourne, Kent, UK) P171-1
Assay: Isothermal titration calorimetry (ITC)
Type: binding
Conditions: 25 °C, PBS pH 7.8, 3% DMSO; read-out: ITC Kd1 ± SD (N = 3)
Recorded Kd by entry
valueType: Kd (µM)

{"columns": ["compound", "valueType", "uom", "testValue"],
 "data": [
  ["Cc1n[nH]c(Cl)c1-c1cccc2cccnc12 [SEL101928]", "Kd", "µM", 0.0497],
  ["c1ccc2c(-c3cn[nH]c3)ccnc2c1 [SFL001535, 4-(3H-pyrazol-4-yl)quinoline]", "Kd", "µM", 0.26],
  ["Cc1n[nH]c(C)c1-c1cccc2cccnc12 [Compound 94320297]", "Kd", "µM", 0.064]
]}

---

Molecular target: Human transthyretin (TTR) thyroxine binding sites (Homo sapiens, UniProt P02766)
Construct: purchased SCIPAC (Sittingbourne, Kent, UK) P171-1
Experiment: TTR CZE Free Probe Peak Height Restoration (FPPHR) assay, 8-ANS displacement
Settings: compound 10 µM in Running Buffer; 10% minimum for a binder
Recorded FPPHR % tested at 10 µM by entry
valueType: FPPHR % tested at 10 µM (% tested at 10 µM)

{"columns": ["structureSmilesString", "system", "valueType", "testValue"],
 "data": [
  ["Cc1n[nH]c(-c2ccnc3ccccc23)n1", "Human transthyretin (TTR) thyroxine binding sites (Homo sapiens, UniProt P02766)", "FPPHR % tested at 10 µM", 17.07],
  ["c1ccc2c(-c3nnc4cnccn34)ccnc2c1", "Human transthyretin (TTR) thyroxine binding sites (Homo sapiens, UniProt P02766)", "FPPHR % tested at 10 µM", 10.85],
  ["Nc1nc(-c2cccc3cccnc23)c2cn[nH]c2n1", "Human transthyretin (TTR) thyroxine binding sites (Homo sapiens, UniProt P02766)", "FPPHR % tested at 10 µM", 23.20],
  ["Clc1ccc2c(-c3cc[nH]n3)ccnc2c1", "Human transthyretin (TTR) thyroxine binding sites (Homo sapiens, UniProt P02766)", "FPPHR % tested at 10 µM", 22.71],
  ["Cc1n[nH]c(C)c1-c1cccc2cccnc12", "Human transthyretin (TTR) thyroxine binding sites (Homo sapiens, UniProt P02766)", "FPPHR % tested at 10 µM", 33.32],
  ["c1ccc2c(-c3cn[nH]c3)ccnc2c1", "Human transthyretin (TTR) thyroxine binding sites (Homo sapiens, UniProt P02766)", "FPPHR % tested at 10 µM", 34.10]
]}
